The measurements presented in this section are drawn from PubChem BioAssay AID1377.

Experiment: rescue of L929 cells from zVAD death – primary screen (AID 1377)
Settings: L929 zVAD necroptosis rescue, ATP luminescence, 24 h, at 10 µM; with zVAD 60 µM unless noted
Out of some 220,000 compounds screened, about 830 (0.38%) were called active.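 Rule for the calls: active = activation, scaled between plate controls, above about 75% (limit read from the data); inactive = activation under that limit.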 Only a selection was taken, and actives are over-represented in it overall.
Outcomes: True for active, False for inactive

>>> df
                                    compound  class_name
 0          NC(=O)COC(=O)/C=C/c1ccc2ccccc2n1       False
 1         O=C(COC(=O)c1ccc(Cl)nc1)NCc1cccs1       False
 2  CC(=O)c1ccc(S(=O)(=O)N2CCN(c3nc4c(C)c(C)ccc4cc3C#N)CC2)cc1       False
 3  CCC(=O)c1ccc(OCC(=O)Nc2ccc3nc(C)sc3c2)cc1       False
 4   COc1cc([C@H](Cc2ccccc2)NC(C)=O)oc(=O)c1       False
 5   Cc1ccc(NC(=O)COc2ccc(-n3ccnc3)cc2)cc1Cl        True
 6  CC1CC(C)(C)n2c(O)c(N=NC(N)=S)c3cccc1c32 (stereo unspecified)       False
 7             Cc1ccc(NC(=O)C/C(N)=N/O)cc1Cl       False
 8  NC(=O)C1(N2CCCCC2)CCN(C2CC(=O)N(Cc3ccc(N4CCCC4=O)cc3)C2=O)CC1 (stereo unspecified)       False
 9  O=C(Nc1cccc(F)c1)N1C2CCC1CC(O)(c1cccnc1)C2 (stereo unspecified)       False
10       CC(C)OCCCNc1ncnc2c1[nH]c1ccc(F)cc12       False
